- Test system: Streptococcus pneumoniae
- ASSAY_DETAILS: Antibacterial activity against penicillin-resistant Streptococcus pneumoniae MSPN 0003 by CLSI broth microdilution method
- Type: functional
MEASURE_NAME: MIC (µg/mL)
Give your result in µg/mL as a bare value.

Name the recorded MIC for CN[C@H](CC(C)C)C(=O)N[C@H]1C(=O)N[C@@H](CC(N)=O)C(=O)N[C@H]2C(=O)N[C@H]3C(=O)N[C@H](C(=O)N[C@@H](C(=O)O)c4cc(O)cc(O)c4-c4cc3ccc4O)[C@H](O[C@H]3C[C@](C)(N)[C@H](O)[C@H](C)O3)c3ccc(c(Cl)c3)Oc3cc2cc(c3O[C@@H]2O[C@H](CO)[C@@H](O)[C@H](O)[C@H]2O[C@H]2C[C@](C)(NCc3ccc(OC)cc3)[C@H](O)[C@H](C)O2)Oc2ccc(cc2Cl)[C@H]1O . 0.125

Name the recorded MIC for CN[C@H](CC(C)C)C(=O)N[C@H]1C(=O)N[C@@H](CC(N)=O)C(=O)N[C@H]2C(=O)N[C@H]3C(=O)N[C@H](C(=O)N[C@@H](C(=O)O)c4cc(O)cc(O)c4-c4cc3ccc4O)[C@H](O[C@H]3C[C@](C)(N)[C@H](O)[C@H](C)O3)c3ccc(c(Cl)c3)Oc3cc2cc(c3O[C@@H]2O[C@H](CO)[C@@H](O)[C@H](O)[C@H]2O[C@H]2C[C@](C)(NCc3ccccc3Cl)[C@H](O)[C@H](C)O2)Oc2ccc(cc2Cl)[C@H]1O . 0.125

Name the recorded MIC for CN[C@H](CC(C)C)C(=O)N[C@H]1C(=O)N[C@@H](CC(N)=O)C(=O)N[C@H]2C(=O)N[C@H]3C(=O)N[C@H](C(=O)N[C@H](C(=O)O)c4cc(O)cc(O)c4-c4cc3ccc4O)[C@H](O)c3ccc(c(Cl)c3)Oc3cc2cc(c3O[C@@H]2O[C@H](CO)[C@@H](O)[C@H](O)[C@H]2O[C@H]2C[C@](C)(N)[C@H](O)[C@H](C)O2)Oc2ccc(cc2Cl)[C@H]1O.Cl [VANCOMYCIN HYDROCHLORIDE] . 0.25

Name the recorded MIC for CN[C@H](CC(C)C)C(=O)N[C@H]1C(=O)N[C@@H](CC(N)=O)C(=O)N[C@H]2C(=O)N[C@H]3C(=O)N[C@H](C(=O)N[C@@H](C(=O)O)c4cc(O)cc(O)c4-c4cc3ccc4O)[C@H](O[C@H]3C[C@](C)(N)[C@H](O)[C@H](C)O3)c3ccc(c(Cl)c3)Oc3cc2cc(c3O[C@@H]2O[C@H](CO)[C@@H](O)[C@H](O)[C@H]2O[C@H]2C[C@](C)(NCc3ccccc3Br)[C@H](O)[C@H](C)O2)Oc2ccc(cc2Cl)[C@H]1O . 0.063

Name the recorded MIC for CCCCN[C@@]1(C)C[C@H](O[C@H]2[C@H](Oc3c4cc5cc3Oc3ccc(cc3Cl)[C@@H](O[C@H]3C[C@](C)(N)[C@H](O)[C@H](C)O3)[C@@H]3NC(=O)[C@H](NC(=O)[C@@H]5NC(=O)[C@H](CC(N)=O)NC(=O)[C@H](NC(=O)[C@@H](CC(C)C)NC)[C@H](O)c5ccc(c(Cl)c5)O4)c4ccc(O)c(c4)-c4c(O)cc(O)cc4[C@H](C(=O)O)NC3=O)O[C@H](CO)[C@@H](O)[C@@H]2O)O[C@@H](C)[C@H]1O . 0.125

Name the recorded MIC for CN[C@H](CC(C)C)C(=O)N[C@H]1C(=O)N[C@@H](CC(N)=O)C(=O)N[C@H]2C(=O)N[C@H]3C(=O)N[C@H](C(=O)N[C@@H](C(=O)O)c4cc(O)cc(O)c4-c4cc3ccc4O)[C@H](O[C@H]3C[C@](C)(N)[C@H](O)[C@H](C)O3)c3ccc(c(Cl)c3)Oc3cc2cc(c3O[C@@H]2O[C@H](CO)[C@@H](O)[C@H](O)[C@H]2O[C@H]2C[C@](C)(N)[C@H](O)[C@H](C)O2)Oc2ccc(cc2Cl)[C@H]1O . 0.125
